- Test system: PC-3 prostate
- test: NCI-60 one-dose screen, 48 h (100 = growth as untreated, 0 = no growth, -100 = all killed)
- condition.set: 10 µM unless noted
The panel holds about 83,000 compounds, 20% with a hit somewhere; the sample as a whole holds those more often.
For each entry below, report its growth value.
// note: answer is a bare numeric in %

Measured growth of CN(C)c1ncc(/C=C2\SC(=S)N(Cc3ccccc3Cl)C2=O)s1 : 91.1

Reported growth for O=C1c2c(c3c4cccnc4[nH]c3c3ccc4ccccc4c23)C(=O)N1CCN1CCCCC1 was 59.5

Briefly, growth measured for COc1ccc(/C(C)=C(\c2ccc(Cl)cc2)c2ccc(OCCN)cc2)cc1 : 78.9

Just so you know, measured growth for CCCCSc1nnc(-c2ccc(-c3ccc(Cl)cc3)nc2C)o1 came out at 91.9

The compound listed as Cc1ccc(C2CC(c3ccc(Nc4nc(NCCO)nc(Nc5ccc(Cl)cc5)n4)cc3)=Nc3c(N)nc(N)nc3N2)cc1 (centres undefined) shows growth equal to -32.7

response.value for O=C1Nc2ccc(Br)cc2/C1=N\c1nnc(-c2ccc(Cl)cc2)o1 (field: growth) = 80.1

Data point: CC1CCc2c(sc3nc(SCC(=O)N/N=C/c4ccc(Cl)cc4)n(-c4ccccc4)c(=O)c23)C1 (centres undefined) ; growth = 95.3

Just so you know, measured growth for CC1(C)CC[C@]2(C(=O)O)CC[C@]3(C)C(=CCC4[C@@]5(C)C[C@@H](O)[C@@H]6OC(c7ccccc7O)OC[C@@]6(C)C5CC[C@]43C)C2C1 (some centres undefined) came out at 62.9

Per the record, C#C[C@]1(O)CC[C@H]2[C@@H]3CC=C4c5sc(Nc6ccncc6)nc5CC[C@]4(C)[C@H]3CC[C@@]21C has growth of 1.86

----------
- Test system: CCRF-CEM leukemia
- test: NCI-60 one-dose screen, 48 h
- condition.set: 10 µM unless noted
- Protocol: Growth inhibition of the CCRF-CEM human tumor cell line is measured as a screen for anti-cancer activity. Cells are grown in 96 well plates and exposed to the test compound for 48 hours. Compounds are tested at a single concentration, which is 10^-5 M for most compounds. The reported endpoint is percent growth (GI% or GIPRCNT), where numbers from 0 - 100% represent growth inhibition, and numbers from -100% - 0 represent cell death. For example, a value of 40 represents 60% growth inhibition. […]
Compounds without any hit were thinned out: in the full panel of roughly 83,000, 20% have a hit. Calls of active or inactive are those of the source. Rule for the calls: active = growth percent below 10; inactive = the rest.
Outcome field: choose from T = active, F = inactive

-- ask # fetch the recorded call for C#C[C@]1(O)CC[C@H]2[C@@H]3CC=C4c5sc(Nc6cccc(Cl)n6)nc5CC[C@]4(C)[C@H]3CC[C@@]21C here
-- reply T

-- ask Hey, what did the test say about COc1cc2c3c(n(CCCN4CCCCC4)c(=O)c2cc1OC)-c1cc2c(cc1C3=O)OCO2 ?
-- reply T

-- ask Dear colleague, could you share the recorded outcome for CC[C@H](C)[C@H]1NC(=O)[C@@H]([C@H](O)C(C)C)NC(=O)[C@@H](C)N(C)C(=O)[C@H](C)N(C)C(=O)[C@H](CC(C)C)NC(=O)[C@H](CC(C)C)N(C)C(=O)[C@H](C)N(C)C1=O when you have a moment?
-- reply T

-- ask Please share the test call associated with O=C(/C=C1\C=CN(CCCCF)c2ccccc21)n1ccc2ccccc21 .
-- reply F

-- ask Given C=C1C(=O)O[C@@H]2C[C@@H](C)CCC(=O)[C@](C)(OC(C)=O)C[C@H](OC(=O)/C(C)=C\C)[C@@H]12 , state the outcome it received in this test.
-- reply T

-- ask Which outcome was entered for the molecule C/C=C/[C@@H]1C=C[C@@H]2C[C@H](C)CC[C@H]2[C@]1(C)/C(O)=C1/C(=O)[C@H](CO)N(C)C1=O in this test?
-- reply F

-- ask Recorded call for C=CCn1c(SCC(=O)Nc2cccc(C(=O)/C=C/c3cccc([N+](=O)[O-])c3)c2)nc2ccccc2c1=O ?
-- reply F
